Where do the numbers come from? From PubChem BioAssay (NCI).

test system: HCC-2998 colon; experiment: NCI tumour cell line growth inhibition, 48 h
For each entry below, report its TGI value.
Only the number, expressed in µM, is required.

Exam item: Given `Fc1ccc(-c2nn3ncccc3c2-c2ccnc(Nc3ccc4c(c3)OCCO4)n2)cc1` , state its recorded TGI.
Marked response: 10.1

Exam item: Now this one: C=C1CC[C@@H]2[C@](C)(COC(C)=O)[C@H](OC(C)=O)CC[C@@]2(C)[C@@H]1CC(Nc1ccc(S(=O)(=O)Nc2ncccn2)cc1)C1=CCOC1=O (some centres undefined)
Marked response: 3.81

----------
tested on: BT-549 breast; test: NCI tumour cell line growth inhibition, 48 h
propertyMeasured: TGI (µM)
Only the number, expressed in µM, is required.

Exam item: Given COC(=O)C12C3C4C1C1C2C3C41NC(=O)c1csc([C@@H](C[C@H](C(C)C)N(C)C(=O)[C@@H](NC(=O)[C@H]2CCCCN2C)C2CC2)OC(C)=O)n1 (some centres undefined) , state its recorded TGI.
Marked response: 4.1

Exam item: Now this one: `CCN(CC)CC(=O)O[C@]1(CC)C(=O)OCc2c1cc1n(c2=O)Cc2cc3ccccc3nc2-1`
Marked response: 1.93

Exam item: Now this one: `N#Cc1c(Cl)c2cc([N+](=O)[O-])ccc2n2c1nc1ccccc12`
Marked response: 34.4

Exam item: Now this one: `Cc1ccc2c3c(c(=O)[nH]c2c1)C1(C(C#N)=C(N)O3)c2cc(Br)ccc2-c2ccc(Br)cc21`
Marked response: 19.8

Exam item: Now this one: `COc1cc2c3c(n(C)c(=O)c2cc1OC)-c1cc2c(cc1/C3=C\CNCCCN)OCO2`
Marked response: 5.22

----------
system: SNB-75 CNS; test: NCI tumour cell line growth inhibition, 48 h
For each entry below, report its TGI value.

Exam item: Given `CC(C)c1ccc(C(c2ccc(OCC(=O)O)cc2)c2ccc(C(C)C)cc(=O)c2O)c(O)c(=O)c1` , state its recorded TGI.
Marked response: 16.2 µM

Exam item: Now this one: COC1=CC2(C=CC1=O)c1cc(OC)c(OC)cc1CCN2C(=O)c1ccccc1 (stereo not drawn)
Marked response: > 100 µM

Exam item: Now this one: `COC(=O)c1c(C)[nH]c(/C=C2\N=C(c3ccc[nH]3)C=C2OC)c1C`
Marked response: 3.24 µM

Exam item: Now this one: Cc1[nH]c2ccccc2c1C1Cc2ccccc2N1C(=O)/C(Cl)=C/c1ccccc1 (stereo not drawn)
Marked response: 99.6 µM

Exam item: Now this one: `c1ccc(CSP234N5CCN2CCN3CCN4CC5)c(CSP234N5CCN2CCN3CCN4CC5)c1`
Marked response: > 100 µM

Exam item: Now this one: `Cc1ccc2c3c(c(=O)[nH]c2c1)C1(C(C#N)=C(N)O3)c2cc(Br)ccc2-c2ccc(Br)cc21`
Marked response: 3.16 µM

Exam item: Now this one: `O=c1[nH]c(Nc2nc3ccccc3[nH]2)nc2c1CCC2`
Marked response: 77.8 µM

Exam item: Now this one: Cc1nn(C(=O)Cc2ccccc2)c2c1C(c1ccc(N(C)C)cc1)SC(N)=N2 (stereo not drawn)
Marked response: 32.9 µM

Exam item: Now this one: `O=C(N/N=C\c1cccc(O)c1)c1ccncc1`
Marked response: > 100 µM

Exam item: Now this one: `CO[C@H]1C=C[C@@]23c4cc5c(cc4CO[C@]2(O)CN(C)[C@H]3C1)OCO5`
Marked response: > 100 µM

Exam item: Now this one: COC(C(O)c1ccc2c(c1)OCO2)P(=O)(c1ccccc1)c1ccccc1 (stereo not drawn)
Marked response: > 100 µM

Exam item: Now this one: COC(=O)C(NC(=O)c1ccccc1)c1ccco1 (stereo not drawn)
Marked response: > 100 µM

Exam item: Now this one: Cc1ccc(NC(=O)c2sc3nc(C)c(C(O)c4ccccc4)cc3c2N)cc1 (stereo not drawn)
Marked response: 13.6 µM

Exam item: Now this one: `COC1(OC)CC(CO)(CNc2nc(N)nc(Cl)c2/C=N\O)C1`
Marked response: > 100 µM

Exam item: Now this one: `CC1(C)N=C(N)N=C(N)N1c1ccc(OCc2ccc(S(=O)(=O)F)c(Cl)c2)c(Cl)c1`
Marked response: > 100 µM

Exam item: Now this one: COc1cccc(N2C(=O)[C@H]3CC(C)c4c([nH]c5ccccc45)[C@H]3C2=O)c1 (stereo partly drawn)
Marked response: 42.1 µM

Exam item: Now this one: COC(=O)[C@H](Cc1c[nH]c2ccccc12)NC(=O)[C@@H](OC)[C@@H]1Cc2cc3cc(OC4CC(OC5CC(O)C(O)C(C)O5)C(O)C(C)O4)c(C)c(O)c3c(O)c2C(=O)[C@H]1OC1CC(OC2CC(OC3CC(C)(O)C(O)C(C)O3)C(O)C(C)O2)C(O)C(C)O1 (stereo partly drawn)
Marked response: 0.0244 µM

Exam item: Now this one: COC(=O)CCc1cc(O)c2c(c1)C(C(=O)OC)C(c1ccc(O)c(O)c1)O2 (stereo not drawn)
Marked response: 8.41 µM

----------
test system: U251 CNS; assay: NCI tumour cell line growth inhibition, 48 h
For each entry below, report its TGI value.
Only the number, expressed in µM, is required.

Exam item: Given `COc1ccc(OC)c(C(=O)c2oc3ccc(Br)cc3c2N)c1` , state its recorded TGI.
Marked response: 16.4

Exam item: Now this one: `CC[CH2][Sn]([Cl])([Cl])[CH2]CC.Oc1ccccc1C=NCCN=Cc1ccccc1O`
Marked response: 12.5

Exam item: Now this one: `c1cc[c]([Pb]([c]2ccccc2)[c]2ccccc2)cc1`
Marked response: 23.9

Exam item: Now this one: `O=C(/C=C\n1cnc(-c2cc(C(F)(F)F)cc(C(F)(F)F)c2)n1)NNc1cnccn1`
Marked response: 12.4

Exam item: Now this one: `O=[N+]([O-])c1cccc2nc3ccccc3c(NCCC[N+]3([O-])CCOCC3)c12`
Marked response: 0.964

----------
tested on: M14 melanoma; test: NCI tumour cell line growth inhibition, 48 h
propertyMeasured: TGI

Exam item: Given `CCCCN1CSC(=S)N(Cc2ccccc2)C1` , state its recorded TGI.
Marked response: > 100 µM

Exam item: Now this one: `Cc1nc2ccccc2n1C(=O)c1c(F)c(F)c(F)c(F)c1F`
Marked response: 25.9 µM

Exam item: Now this one: CN1C(=O)c2ccccc2NC(=O)C12O[C@@H]2c1cccc(O)c1 (stereo not given in full)
Marked response: > 100 µM

Exam item: Now this one: `CC(=O)N[C@@H](Cc1ccc(O)cn1)C(=O)NCc1cccc(Cl)c1`
Marked response: > 100 µM

Exam item: Now this one: `CCOC(=O)c1c(C)nc2c(c1N)/C(=C/c1ccc(OC)cc1)C(=O)N2Cc1ccc(F)cc1`
Marked response: 0.443 µM

Exam item: Now this one: `Cc1ccc(NC(=O)c2cccc(OP(=O)(O)Nc3ccc(C)cc3)c2)cc1`
Marked response: > 100 µM

Exam item: Now this one: `C/C=C(/C)C(=O)O[C@H]1C[C@@H]2[C@@H](O)c3occ(C)c3C[C@]2(C)[C@@H](C)C1`
Marked response: 29.9 µM

Exam item: Now this one: `O=C(O)[C@@H]1CSCN1C(=O)[C@@H]1CCC(=S)N1`
Marked response: > 100 µM

Exam item: Now this one: NCCCCC(N)C(=O)NCCNc1ccc(NCCNC(=O)C(N)CCCCN)c2c1C(=O)c1ccccc1C2=O (stereo not given)
Marked response: > 100 µM

Exam item: Now this one: O=C(Nc1ccc(Cl)cc1Cl)C(=O)C(C(=O)c1ccncc1)C1OC(=O)c2ccccc21 (stereo not given)
Marked response: > 100 µM

----------
test system: A498 renal; assay: NCI tumour cell line growth inhibition, 48 h
For each entry below, report its TGI value.

Exam item: Given COC(=O)C1=C(C(=O)OC)c2cc(OC)ccc2C(C(=S)N(C)C)S1 (stereo not drawn) , state its recorded TGI.
Marked response: > 100 µM

Exam item: Now this one: `COc1ccc(CCN2CCN(CCc3ccc(OC)cc3)CC2)cc1`
Marked response: > 100 µM

Exam item: Now this one: `CC(C)(C)c1ccc(O)c(CN(Cc2cc(C(C)(C)C)ccc2O)c2ccccc2)c1`
Marked response: 28.1 µM

Exam item: Now this one: `CC[C@H](C)[C@H]1O[C@]2(C=C[C@@H]1C)C[C@@H]1C[C@@H](C/C=C(\C)[C@@H](O[C@H]3C[C@H](OC)[C@@H](O[C@H]4C[C@H](OC)[C@@H](NC)[C@H](C)O4)[C@H](C)O3)[C@@H](C)/C=C/C=C3\CO[C@@H]4[C@H](O)C(C)=C[C@@H](C(=O)O1)[C@]34O)O2`
Marked response: 11.6 µM

Exam item: Now this one: `COc1ccc(C2=Nn3c(nnc(Cc4ccc(Cl)cc4)c3=O)SC2)cc1`
Marked response: > 100 µM

Exam item: Now this one: `CNC(=O)N1CN(c2ccccc2)C2(CCN(CCCC3(c4ccc(F)cc4)OCCO3)CC2)C1=O`
Marked response: > 100 µM

Exam item: Now this one: `CSc1nc2cc(S(=O)(=O)N3CCCCC3)ccc2s1`
Marked response: > 100 µM

Exam item: Now this one: `O=C1O/C(=C(/Cl)c2cccc3ccccc23)c2ccccc21`
Marked response: > 100 µM

Exam item: Now this one: `CC[CH2][Sn]([Cl])([Cl])[CH2]CC.Oc1ccccc1C=NCCN=Cc1ccccc1O`
Marked response: 6.03 µM

Exam item: Now this one: COC(=O)[C@H](Cc1c[nH]c2ccccc12)NC(=O)[C@@H](OC)[C@@H]1Cc2cc3cc(OC4CC(OC5CC(O)C(O)C(C)O5)C(O)C(C)O4)c(C)c(O)c3c(O)c2C(=O)[C@H]1OC1CC(OC2CC(OC3CC(C)(O)C(O)C(C)O3)C(O)C(C)O2)C(O)C(C)O1 (stereo partly drawn)
Marked response: 0.0249 µM

Exam item: Now this one: `Cc1[nH]n(C2=NCCN2)c(=O)c1Cc1ccccc1`
Marked response: > 100 µM

Exam item: Now this one: `Clc1ccc(-c2c(C3=NCCCN3)nnn2-c2ccc(Cl)cc2)cc1`
Marked response: > 96.8 µM

Exam item: Now this one: `COC(=O)c1c(C)[nH]c(/C=C2\N=C(c3ccc[nH]3)C=C2OC)c1C`
Marked response: 10.7 µM

Exam item: Now this one: `c1ccc2c(c1)nc1n2CNC1`
Marked response: > 100 µM

Exam item: Now this one: `Cc1ccc(NC(=S)N/N=C(/c2ccccc2)c2ccccn2)cc1`
Marked response: 11.2 µM

Exam item: Now this one: `CCOC(=O)CN=C1NNS(=O)(=O)c2ccccc21`
Marked response: > 100 µM

Exam item: Now this one: `CCOC(=O)c1c(C)nc2c(c1N)/C(=C/c1ccc(OC)cc1)C(=O)N2Cc1ccc(F)cc1`
Marked response: 2.6 µM

Exam item: Now this one: `CC(=O)N1C/C(=C\c2ccc(N(C)C)cc2)C(=O)/C(=C/c2ccc(N(C)C)cc2)C1`
Marked response: > 100 µM
